// data source = patent US20210347873A1

Quick reference for OD450 nm among some binders
Target: T1, human APRIL protein (human, UniProt O75888 105-250, limits assumed)
T1 construct: Bought protein; also called recombinant APRIL protein
T1 sequence (looked up): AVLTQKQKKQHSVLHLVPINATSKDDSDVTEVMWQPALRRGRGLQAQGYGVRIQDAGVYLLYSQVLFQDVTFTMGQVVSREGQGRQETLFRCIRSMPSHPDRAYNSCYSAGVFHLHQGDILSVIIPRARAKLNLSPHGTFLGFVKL
Assay: ELISA, coated APRIL; antibody 66.7 nM
API doc: respond with a numeric literal and nothing else, no unit.

8E7D9C7F5 (antibody, V domains shown) VH: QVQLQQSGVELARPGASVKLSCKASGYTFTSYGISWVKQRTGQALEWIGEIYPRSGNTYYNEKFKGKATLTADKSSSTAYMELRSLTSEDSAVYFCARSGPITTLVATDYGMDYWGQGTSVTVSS VL: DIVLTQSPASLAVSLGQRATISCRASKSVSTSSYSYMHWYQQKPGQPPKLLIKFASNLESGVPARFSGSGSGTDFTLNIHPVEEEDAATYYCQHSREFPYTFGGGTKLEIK ... 0.464
93C6F10D3 (antibody, V domains shown) VH: EVQLVESGGGLVTPGGSLKLSCVASGFAFSTYGMSWVRQTPERRLEWVAYISGGGGSIYYPDSVKGRFTISRDNAKNILYLQMSSLKSEDTAMYHCTRHPDLLLRYDYALDHWGQGTSVTVSS VL: DIQMTQSPASLSASVGETVTITCRASENIHIYLAWYQQKQGKSPQLLVYNGKTLADGVPSRFSGSGSGTQYSLKINTLQPEDFGNYYCQHFWNSTWTFGGGTKLEIK ... 0.57
78C11D2D12 (antibody, V domains shown, Mouse hybridoma antibody purified on Protein G) VH: QVQLQQSGAELVRPGTSVKISCKASGYAFTNYWLGWVKQRPGHGLEWIGDIYPGSGNTYYNEKFKGKATLTADKSSSTAYMQLSSLTSEDSAVFFCAAYLYAMDYWGQGTSVTVSS VL: QIVLTQSPAIMSASPGEKVTITCSASSSVSYMHWFQQKPGTSPKLWIYSASNLASGVPARFSGSGSGTSYSLTISRMEAEDAATYYCQQRGSYPFTFGSGTKLEIK ... 0.138

Below: the item to evaluate.
input: Dear colleague, I am looking for the recorded OD450 nm of the following binder: 67A2E1D10 (antibody, V domains shown, Mouse hybridoma antibody purified on Protein G) VH: EVQLQQSGAELVKPGASVKLSCTASGFNIKNYYMHWVKQRTEEGLEWIGRIDPEDGETKYAPKFQAKATITADTSSNTAYLQLSSLTSEDTAVYFCARKGYYGNYGAWFAYWGQGTLVTVSA VL: DIQMTQSPASLSVSVGETVTITCRASEDLYSNLAWYQQKQGKSPQLLVYAATFLADGVPSRFSGSGSGTQYSLKINSLQSEDFGNYYCQHFWGTPPTFGGGTKLEIK
output: 0.264
